Hey, just so you know, these numbers are from ChEMBL document CHEMBL5260859.

Biological target: Peroxisome proliferator-activated receptor delta (Homo sapiens, UniProt Q03181)
Sequence (Q03181 whole entry): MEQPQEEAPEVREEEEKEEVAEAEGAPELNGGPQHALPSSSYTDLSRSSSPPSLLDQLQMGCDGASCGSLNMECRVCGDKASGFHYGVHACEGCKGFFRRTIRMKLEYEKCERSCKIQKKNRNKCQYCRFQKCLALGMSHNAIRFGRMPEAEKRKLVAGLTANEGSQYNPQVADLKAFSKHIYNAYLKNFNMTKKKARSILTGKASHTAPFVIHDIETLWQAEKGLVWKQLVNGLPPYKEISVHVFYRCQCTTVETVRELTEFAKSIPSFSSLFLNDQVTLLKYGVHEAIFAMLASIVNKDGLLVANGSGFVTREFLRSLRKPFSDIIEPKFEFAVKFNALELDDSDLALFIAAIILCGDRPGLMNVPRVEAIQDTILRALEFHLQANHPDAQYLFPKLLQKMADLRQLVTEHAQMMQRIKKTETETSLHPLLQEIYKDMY
Assay: Agonist activity at Gal4-fused human PPAR-delta ligand binding domain expressed in CHO-K1 cells assessed as receptor transactivation incubated for 24 to 48 hrs by luciferase reporter gene assay
readout: EC50 (µM)
Field format: number, assumed µM, no unit text.

Need EC50, item `Cc1cc(CC(=O)O)cc(CN2CCN(c3nc4ccc(C(F)(F)F)cc4s3)[C@@H](C)C2)c1` 0.01

Record: `Cc1cc(CC(=O)O)cc(CN2CCN(c3nc4ccc(C(F)(F)F)cc4s3)[C@H](C)C2)c1` 0.0062

Continue with `Cc1cc(CC(=O)O)cc(CN2CCN(c3nc4ccc(C(F)(F)F)cc4s3)[C@@H](CC(C)C)C2)c1` 0.019

----------
Target: Peroxisome proliferator-activated receptor alpha (Mus musculus) (UniProt P23204)
Sequence (P23204 whole entry, the tested form may be a part): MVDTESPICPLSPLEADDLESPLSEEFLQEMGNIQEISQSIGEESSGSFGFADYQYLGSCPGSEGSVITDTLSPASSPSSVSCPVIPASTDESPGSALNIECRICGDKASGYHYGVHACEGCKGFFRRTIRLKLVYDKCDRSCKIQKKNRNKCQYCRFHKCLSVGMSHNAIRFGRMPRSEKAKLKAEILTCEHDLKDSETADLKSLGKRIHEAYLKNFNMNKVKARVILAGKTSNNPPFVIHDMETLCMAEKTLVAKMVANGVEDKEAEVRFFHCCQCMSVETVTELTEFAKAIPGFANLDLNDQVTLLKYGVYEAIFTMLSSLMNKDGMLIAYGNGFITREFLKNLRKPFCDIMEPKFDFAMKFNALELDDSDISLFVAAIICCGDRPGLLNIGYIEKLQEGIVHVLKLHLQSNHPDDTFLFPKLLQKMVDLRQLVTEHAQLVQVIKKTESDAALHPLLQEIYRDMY
Test: Agonist activity at Gal4-fused mouse PPAR-alpha ligand binding domain expressed in CHO-K1 cells assessed as receptor transactivation incubated for 24 to 48 hrs by luciferase reporter gene assay relative to control
Type: cell-based
Settings: time lower 24.0 hrs, time upper […]
I'd appreciate it if you could supply Emax values for the items below.
Reply numerically in %, unit not repeated.

Using the record for `Cc1cc(CC(=O)O)cc(CN2CCN(c3nc4ccc(C(F)(F)F)cc4s3)[C@H](C)C2)c1` , report its Emax. 1.7

Similarly, `Cc1ccc(CC(=O)O)cc1OCCN1CCN(c2nc3ccc(Cl)cc3s2)C[C@@H]1C` ? 6.9

Consider next the compound `CC[C@H]1CN(c2nc3ccc(C(F)(F)F)cc3s2)CCN1CCOc1cc(CC(=O)O)ccc1Cl` in the same way. 8

Now consider `Cc1cc(CC(=O)O)cc(CN2CCN(c3nc4ccc(C(F)(F)F)cc4s3)[C@H](C(C)C)C2)c1` . 1.3

Please answer likewise for `C[C@H]1CN(CCOc2cc(CC(=O)O)ccc2Cl)CCN1c1nc2ccc(Cl)cc2s1` 16.7

And `Cc1cc(CC(=O)O)cc(CN2CCN(c3nc4ccc(C(F)(F)F)cc4s3)[C@H](CC(C)C)C2)c1` ? 1.4

And `C[C@H]1CN(c2nc3ccc(Cl)cc3s2)CCN1CCOc1cc(CC(=O)O)ccc1Cl` ? 8.3

Now try `CC[C@@H]1CN(Cc2cc(C)cc(CC(=O)O)c2)CCN1c1nc2ccc(C(F)(F)F)cc2s1` . 2.8

Now the compound `Cc1cc(CC(=O)O)cc(CN2CCN(c3nc4ccc(C(F)(F)F)cc4s3)[C@@H](C(C)C)C2)c1` 10.3

Item: CC(C)C[C@H]1CN(c2nc3ccc(Cl)cc3s2)CCC1CCOc1cc(CC(=O)O)ccc1Cl (stereo partly specified) 4.6

Follow-up item: CC[C@H]1CN(c2nc3ccc(Cl)cc3s2)CCC1CCOc1cc(CC(=O)O)ccc1Cl (stereo partly specified) 6.1

----------
Assay: AUC in rat at 1 mg/kg, po
Assay type: ADME, organism-based
Design: dose 1 mg/kg, route po
Conditions: in vivo
readout: AUC (ng·h/mL)
All answers are understood in ng·h/mL, so give the number only.

Would you mind telling me what AUC value was observed for `Cc1cc(CC(=O)O)cc(CN2CCN(c3nc4ccc(C(F)(F)F)cc4s3)[C@@H](C(C)C)C2)c1` ? 45900

Then `Cc1cc(CC(=O)O)cc(CN2CCN(c3nc4ccc(C(F)(F)F)cc4s3)[C@H](CC(C)C)C2)c1` ? 7140

Input `C[C@H]1CN(c2nc3ccc(C(F)(F)F)cc3s2)CCN1CCOc1cc(CC(=O)O)ccc1Cl` 101

----------
Molecular target: Peroxisome proliferator-activated receptor delta (Homo sapiens) (UniProt Q03181)
Assay: Agonist activity at Gal4-fused human PPAR-delta ligand binding domain expressed in CHO-K1 cells assessed as receptor transactivation incubated for 24 to 48 hrs by luciferase reporter gene assay relative to control
Assay type: cell-based
Conditions: time lower 24.0 hrs, time upper […]
Kindly state Emax for each of the entries shown.
// units = %; emit number, no label

Value lookup for Emax; key = `C[C@H]1CN(CCOc2cc(CC(=O)O)ccc2Cl)CCN1c1nc2ccc(Cl)cc2s1` 23.9

Also need `Cc1cc(CC(=O)O)cc(CN2CCN(c3nc4ccc(C(F)(F)F)cc4s3)[C@@H](CC(C)C)C2)c1` , thanks. 13.6

Let us now turn to `Cc1cc(CC(=O)O)cc(CN2CCN(c3nc4ccc(C(F)(F)F)cc4s3)[C@H](CC(C)C)C2)c1` 17.5

# iterate: `C[C@@H]1CN(CCOc2cc(CC(=O)O)ccc2Cl)CCN1c1nc2ccc(Cl)cc2s1` 21.9

----------
Target: Peroxisome proliferator-activated receptor alpha (Mus musculus)
Sequence (P23204 whole entry, the tested form may be a part): as above
Experiment: Agonist activity at Gal4-fused mouse PPAR-alpha ligand binding domain expressed in CHO-K1 cells assessed as receptor transactivation incubated for 24 to 48 hrs by luciferase reporter gene assay
readout: EC50 (µM)
Just the number please, in µM, no unit attached.

Field request: EC50 | item: `C[C@@H]1CN(c2nc3ccc(Cl)cc3s2)CCN1CCOc1cc(CC(=O)O)ccc1Cl` 3.2

Likewise for `Cc1cc(CC(=O)O)cc(CN2CCN(c3nc4ccc(C(F)(F)F)cc4s3)[C@H](C)C2)c1` ? 3.7

For `Cc1cc(CC(=O)O)cc(CN2CCN(c3nc4ccc(C(F)(F)F)cc4s3)[C@@H](C(C)C)C2)c1` then? 2

Another: `C[C@H]1CN(c2nc3ccc(C(F)(F)F)cc3s2)CCN1CCOc1cc(CC(=O)O)ccc1Cl` 2.7

// next record `Cc1cc(CC(=O)O)cc(CN2CCN(c3nc4ccc(C(F)(F)F)cc4s3)[C@@H](C)C2)c1` 3.9

Entry to check: `Cc1cc(CC(=O)O)cc(CN2CCN(c3nc4ccc(C(F)(F)F)cc4s3)C[C@H]2C)c1` 8

Please answer likewise for `Cc1cc(CC(=O)O)cc(CN2CCN(c3nc4ccc(C(F)(F)F)cc4s3)[C@@H](CC(C)C)C2)c1` 5.8

Please do the same for CC1CN(c2nc3ccc(Cl)cc3s2)CCC1CCOc1cc(CC(=O)O)ccc1Cl (configuration not stated) as well. 3.6

Next molecule up: `C[C@@H]1CN(CCOc2cc(CC(=O)O)ccc2Cl)CCN1c1nc2ccc(Cl)cc2s1` 3.9

What do we get for `Cc1ccc(CC(=O)O)cc1OCCC1CCN(c2nc3ccc(Cl)cc3s2)CC1` ? 1.13

Same question for `Cc1cc(CC(=O)O)cc(CN2CCN(c3nc4ccc(C(F)(F)F)cc4s3)CC2)c1` please. 3

And `C[C@H]1CN(c2nc3ccc(Cl)cc3s2)CCN1CCOc1cc(CC(=O)O)ccc1Cl` ? 7.1

----------
Target: Peroxisome proliferator-activated receptor delta (Mus musculus, UniProt P35396)
Sequence (P35396 whole entry, the tested form may be a part): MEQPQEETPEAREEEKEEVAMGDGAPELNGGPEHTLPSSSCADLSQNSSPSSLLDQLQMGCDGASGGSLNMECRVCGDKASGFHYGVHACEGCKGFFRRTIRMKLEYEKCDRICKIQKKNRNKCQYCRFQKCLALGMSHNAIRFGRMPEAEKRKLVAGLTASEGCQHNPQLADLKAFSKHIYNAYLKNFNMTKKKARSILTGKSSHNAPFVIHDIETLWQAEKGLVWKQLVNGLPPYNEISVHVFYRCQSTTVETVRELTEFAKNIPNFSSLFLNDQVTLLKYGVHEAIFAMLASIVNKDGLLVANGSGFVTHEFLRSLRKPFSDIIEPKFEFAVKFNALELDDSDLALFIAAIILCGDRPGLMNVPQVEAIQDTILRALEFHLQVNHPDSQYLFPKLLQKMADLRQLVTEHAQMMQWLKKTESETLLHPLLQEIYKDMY
Assay: Agonist activity at Gal4-fused mouse PPAR-delta ligand binding domain expressed in CHO-K1 cells assessed as receptor transactivation incubated for 24 to 48 hrs by luciferase reporter gene assay
Could you please report measured EC50 for the items listed next?
Please give a number only; it is taken to be in nM.

I'd like to know its EC50. The molecule in question is `Cc1cc(CC(=O)O)cc(CN2CCN(c3nc4ccc(C(F)(F)F)cc4s3)[C@H](C)C2)c1` 24

Now try `C[C@H]1CN(c2nc3ccc(C(F)(F)F)cc3s2)CCN1CCOc1cc(CC(=O)O)ccc1Cl` . 6.9

One more molecule: `C[C@@H]1CN(CCOc2cc(CC(=O)O)ccc2Cl)CCN1c1nc2ccc(Cl)cc2s1` 46

Further, for `C[C@@H]1CN(c2nc3ccc(Cl)cc3s2)CCN1CCOc1cc(CC(=O)O)ccc1Cl` ? 47

----------
Field: Activity. Provide a value for each of the molecules that follow.
Tested on: Mus musculus
Experiment: Antihypercholesterolemic activity against hApoB100/hCETP-dTg hypercholesterolemic mouse model assessed as serum HDL-C level at 3 mg/kg, po administered once daily for 8 days
Type: functional
Details: time 8 day
Numeric answer only, unit % assumed.

Param readout= Activity; system= Mus musculus; entry= `C[C@H]1CN(c2nc3ccc(C(F)(F)F)cc3s2)CCN1CCOc1cc(CC(=O)O)ccc1Cl` ; returns value. 113

Quick one: `Cc1cc(CC(=O)O)cc(CN2CCN(c3nc4ccc(C(F)(F)F)cc4s3)[C@@H](C(C)C)C2)c1` 188

Again, but for `Cc1cc(CC(=O)O)cc(CN2CCN(c3nc4ccc(C(F)(F)F)cc4s3)[C@H](CC(C)C)C2)c1` 145
